experiment: AMPatch in-vivo tobramycin PK monitoring in a rat model (ISF sensor readout and blood LC-MS/MS); parameters: species or system Sprague-Dawley rats; conditions: Sprague-Dawley, intravenous tobramycin 20 mg/kg, different animals, blood LC-MS/MS, read-out: AUC_blood
attribute-measured: AUC
Remember to put the unit after the number in your answer.

Reported AUC of NC[C@H]1O[C@H](O[C@H]2[C@H](O)[C@@H](O[C@H]3O[C@H](CO)[C@@H](O)[C@H](N)[C@H]3O)[C@H](N)C[C@@H]2N)[C@H](N)C[C@@H]1O [tobramycin] : 176 µM·h
